# Measurement Description: Pharmacokinetics after intravenous administration in male rats
# Run Parameters: Sprague-Dawley, rat, in vivo, 1 mg/kg

Compound: CO[C@H]1/C=C/O[C@@]2(C)Oc3c(C)c(O)c4c(O)c(c5c(nc6cc(C)ccn65)c4c3C2=O)NC(=O)/C(C)=C\C=C\[C@H](C)[C@H](O)[C@@H](C)[C@@H](O)[C@@H](C)[C@H](OC(C)=O)[C@@H]1C [Rifaximin, reference compound]
half-life [h]: 2.45

---

# Measurement Description: Pharmacokinetics after oral administration in male rats
# Run Parameters: Sprague-Dawley, rat, in vivo, po, 30 mg/kg
Attribute Measured: MRT inf (h)

Compound: CO[C@H]1/C=C/O[C@@]2(C)Oc3c(C)c(O)c4c(O)c(c5c(nc6cc(C)ccn65)c4c3C2=O)NC(=O)/C(C)=C\C=C\[C@H](C)[C@H](O)[C@@H](C)[C@@H](O)[C@@H](C)[C@H](OC(C)=O)[C@@H]1C [Rifaximin, reference compound]
Value Measured: 9.22

---

# Measurement Description: Pharmacokinetics after oral administration in male rats
# Run Parameters: Sprague-Dawley, rat, in vivo, po, 30 mg/kg

Compound: CO[C@H]1/C=C/O[C@@]2(C)Oc3c(C)c(O)c4c(O)c(c5c(nc6cc(C)ccn65)c4c3C2=O)NC(=O)/C(C)=C\C=C\[C@H](C)[C@H](O)[C@@H](C)[C@@H](O)[C@@H](C)[C@H](OC(C)=O)[C@@H]1C [Rifaximin, reference compound]
Cmax (ng/mL): 57.1

---

# Measurement Description: Pharmacokinetics after intravenous administration in male rats
# Run Parameters: Sprague-Dawley, rat, in vivo, 1 mg/kg

Compound: CO[C@H]1/C=C/O[C@@]2(C)Oc3c(C)c(O)c4c(O)c(c5c(nc6cc(C)ccn65)c4c3C2=O)NC(=O)/C(C)=C\C=C\[C@H](C)[C@H](O)[C@@H](C)[C@@H](O)[C@@H](C)[C@H](OC(C)=O)[C@@H]1C [Rifaximin, reference compound]
C0 / ng/mL: 3760

---

# Measurement Description: Pharmacokinetics after oral administration in male rats
# Run Parameters: Sprague-Dawley, rat, in vivo

Compound: CO[C@H]1/C=C/O[C@@]2(C)Oc3c(C)c(O)c4c(O)c(c5c(nc6cc(C)ccn65)c4c3C2=O)NC(=O)/C(C)=C\C=C\[C@H](C)[C@H](O)[C@@H](C)[C@@H](O)[C@@H](C)[C@H](OC(C)=O)[C@@H]1C [Rifaximin, reference compound]
Display Unit: %
bioavailability: 0.4

---

# Tested on: Staphylococcus aureus IM149
# Measurement Description: MIC by serial dilution, Strain A
# Type: cell-based
# Run Parameters: range between last concentration with growth and first without growth
compounds and their reported MIC

Compound: CO[C@H]1/C=C/O[C@@]2(C)Oc3c(C)c(O)c4c(O)c(c5c(nc6ccc(/C=N/N7CCCCC7)cn65)c4c3C2=O)NC(=O)/C(C)=C\C=C\[C@H](C)[C@H](O)[C@@H](C)[C@@H](O)[C@@H](C)[C@H](O)[C@@H]1C
MIC: 8 to 16 µg/mL

Compound: CO[C@H]1/C=C/O[C@@]2(C)Oc3c(C)c(O)c4c(O)c(c5c(nc6ccc(/C=N/N(C)C)cn65)c4c3C2=O)NC(=O)/C(C)=C\C=C\[C@H](C)[C@H](O)[C@@H](C)[C@@H](O)[C@@H](C)[C@H](OC(C)=O)[C@@H]1C
MIC: 0.03 to 0.06 µg/mL

Compound: CO[C@H]1/C=C/O[C@@]2(C)Oc3c(C)c(O)c4c(O)c(c5c(nc6cc(/C=N/C(C)C)ccn65)c4c3C2=O)NC(=O)/C(C)=C\C=C\[C@H](C)[C@H](O)[C@@H](C)[C@@H](O)[C@@H](C)[C@H](OC(C)=O)[C@@H]1C
MIC: 0.03 to 0.06 µg/mL

Compound: CO[C@H]1/C=C/O[C@@]2(C)Oc3c(C)c(O)c4c(O)c(c5c(nc6ccc(/C=N/N(C)C)cn65)c4c3C2=O)NC(=O)/C(C)=C\C=C\[C@H](C)[C@H](O)[C@@H](C)[C@@H](O)[C@@H](C)[C@H](O)[C@@H]1C
MIC: 8 to 16 µg/mL

Compound: CO[C@H]1/C=C/O[C@@]2(C)Oc3c(C)c(O)c4c(O)c(c5c(nc6cc(/C=N/N7CCCCC7)ccn65)c4c3C2=O)NC(=O)/C(C)=C\C=C\[C@H](C)[C@H](O)[C@@H](C)[C@@H](O)[C@@H](C)[C@H](OC(C)=O)[C@@H]1C
MIC: 0.03 to 0.06 µg/mL

Compound: CO[C@H]1/C=C/O[C@@]2(C)Oc3c(C)c(O)c4c(O)c(c5c(nc6cc(C)ccn65)c4c3C2=O)NC(=O)/C(C)=C\C=C\[C@H](C)[C@H](O)[C@@H](C)[C@@H](O)[C@@H](C)[C@H](OC(C)=O)[C@@H]1C [Rifaximin, reference compound]
MIC: 0.25 to 0.5 µg/mL

Compound: CO[C@H]1/C=C/O[C@@]2(C)Oc3c(C)c(O)c4c(O)c(c5c(nc6cc(C=O)ccn65)c4c3C2=O)NC(=O)/C(C)=C\C=C\[C@H](C)[C@H](O)[C@@H](C)[C@@H](O)[C@@H](C)[C@H](OC(C)=O)[C@@H]1C
MIC: > 64 µg/mL

Compound: CO/N=C/c1ccn2c(c1)nc1c3c4c5c(C)c(O)c3c(O)c(c12)NC(=O)/C(C)=C\C=C\[C@H](C)[C@H](O)[C@@H](C)[C@@H](O)[C@@H](C)[C@H](OC(C)=O)[C@H](C)[C@@H](OC)/C=C/O[C@@](C)(O5)C4=O
MIC: < 0.015 µg/mL

Compound: CO[C@H]1/C=C/O[C@@]2(C)Oc3c(C)c(O)c4c(O)c(c5c(nc6ccc(/C=N/N7CCCCC7)cn65)c4c3C2=O)NC(=O)/C(C)=C\C=C\[C@H](C)[C@H](O)[C@@H](C)[C@@H](O)[C@@H](C)[C@H](OC(C)=O)[C@@H]1C
MIC: 0.03 to 0.06 µg/mL

Compound: CO[C@H]1/C=C/O[C@@]2(C)Oc3c(C)c(O)c4c(O)c(c5c(nc6cc(/C=N/N(C)C)ccn65)c4c3C2=O)NC(=O)/C(C)=C\C=C\[C@H](C)[C@H](O)[C@@H](C)[C@@H](O)[C@@H](C)[C@H](OC(C)=O)[C@@H]1C
MIC: 0.03 to 0.06 µg/mL

Compound: CO[C@H]1/C=C/O[C@@]2(C)Oc3c(C)c(O)c4c(O)c(c5c(nc6cc(/C=N/NC(=O)c7ccncc7)ccn65)c4c3C2=O)NC(=O)/C(C)=C\C=C\[C@H](C)[C@H](O)[C@@H](C)[C@@H](O)[C@@H](C)[C@H](OC(C)=O)[C@@H]1C
MIC: > 64 µg/mL

Compound: CO[C@H]1/C=C/O[C@@]2(C)Oc3c(C)c(O)c4c(O)c(c5c(nc6cc(/C=N/N7CCOCC7)ccn65)c4c3C2=O)NC(=O)/C(C)=C\C=C\[C@H](C)[C@H](O)[C@@H](C)[C@@H](O)[C@@H](C)[C@H](OC(C)=O)[C@@H]1C
MIC: < 0.015 µg/mL

Compound: CO[C@H]1/C=C/O[C@@]2(C)Oc3c(C)c(O)c4c(O)c(c5c(nc6cc(CO)ccn65)c4c3C2=O)NC(=O)/C(C)=C\C=C\[C@H](C)[C@H](O)[C@@H](C)[C@@H](O)[C@@H](C)[C@H](OC(C)=O)[C@@H]1C
MIC: 8 to 16 µg/mL
